Values were extracted from BindingDB's records for patent US20250313563.

pIC50: −log10 of the molar value.
What follows is a record of pIC50 for Glycogen synthase kinase-3 beta (Homo sapiens).

Answered cases to consult:
{"columns": ["molecule", "pIC50"],
 "data": [
  ["CC[C@@]1(c2cccc(C(F)(F)F)c2)C2=CN=NC2NC2=C1C(=O)N(c1cnn(C)c1)CC2 (some centres undefined) [US20250313563, Compound 949271]", "< 5.30"],
  ["CCC1(c2cccc(-c3cc(C)nn3C)c2)C2=C(N=NC2)NC2=C1C(=O)NC(C)(C)C2 (centres undefined) [US20250313563, Compound 943371]", "5.30 to 6.00"],
  ["CC[C@]1(c2cccc(C)c2)C2=C(CC(C)(C)CC2=O)NC2N=NC(C(F)(F)F)=C21 (some centres undefined) [US20250313563, Compound 883872]", "< 5.30"]
]}

Summary for this molecule, CC[C@@]1(c2cccc(C)c2)C2=C(CC(C)(C)CC2=O)NC2N=NC(C(F)(F)F)=C21 (some centres undefined) [US20250313563, Compound 883873] : pIC50 is 6.00 to 7.00

---

Entries below carry reported IC50 on Glycogen synthase kinase-3 beta (Homo sapiens, UniProt P49841).
Sequence (P49841 whole entry): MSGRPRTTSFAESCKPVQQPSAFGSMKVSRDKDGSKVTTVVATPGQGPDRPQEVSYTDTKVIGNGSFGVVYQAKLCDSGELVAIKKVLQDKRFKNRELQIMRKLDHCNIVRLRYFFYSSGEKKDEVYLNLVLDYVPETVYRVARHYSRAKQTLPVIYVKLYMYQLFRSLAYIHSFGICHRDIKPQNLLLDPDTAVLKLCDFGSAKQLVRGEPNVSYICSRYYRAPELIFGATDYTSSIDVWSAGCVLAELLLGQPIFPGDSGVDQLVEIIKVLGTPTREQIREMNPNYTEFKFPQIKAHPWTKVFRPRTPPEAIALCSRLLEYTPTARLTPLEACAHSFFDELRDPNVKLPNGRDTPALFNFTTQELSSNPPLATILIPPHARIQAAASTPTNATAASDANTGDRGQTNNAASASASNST

{"columns": ["compound", "obs-value"],
 "data": [
  ["CCC1(c2cccc(-c3cnn(C)c3)c2)C2=C(CC(C)(C)NC2=O)NC2N=NC(C)=C21 (stereo not drawn) [US20250313563, Compound 944027]", "100 to 1000 nM"],
  ["CCC1(c2cccc(N(C)c3cc(C)nc(C)c3)c2)C2=CN=NC2NC2=C1C(=O)CC(C)(C)C2 (stereo not drawn) [US20250313563, Compound 913256]", "> 5000 nM"],
  ["CC(=O)N1CC[C@@]2(C1)C1=C(N=NC1)NC1=C2C(=O)CC(C)(C)C1 [US20250313563, Compound 889584]", "1000 to 5000 nM"],
  ["CC[C@]1(c2cccc(S(=O)(=O)C(C)C)c2)C2=C(CC(C)(C)NC2=O)NC2=C1C(C)N=N2 (stereo partly drawn) [US20250313563, Compound 947870]", "100 to 1000 nM"],
  ["CC[C@]1(c2cccc(C3=C4CC=C(OC)C=C4N=CC3)c2)C2=CN=NC2NC2=C1C(=O)NC(C)(C)C2 (stereo partly drawn) [US20250313563, Compound 948661]", "100 to 1000 nM"],
  ["CC1(C)CC(=O)C2=C(C1)NC1=C(CN=N1)[C@]21CC[C@H](c2ccncc2)CC1 [US20250313563, Compound 949321]", "< 100 nM"],
  ["CCC1(c2cccc(C(F)(F)F)c2)C2=CN=NC2NC2=C1C(=O)N(C1=CN=NC1)CC2 (stereo not drawn) [US20250313563, Compound 950479]", "100 to 1000 nM"],
  ["CCC1(c2cccc(-c3ccnc(C(F)(F)F)c3)c2)C2=C(CC(C)(C)CC2=O)NC2N=NC(C)=C21 (stereo not drawn) [US20250313563, Compound 883989]", "100 to 1000 nM"],
  ["CC1(C)CC(=O)C2=C(C1)NC1=C(CN=N1)C21CCN(S(C)(=O)=O)CC1 [US20250313563, Compound 880776]", "< 100 nM"],
  ["CC[C@]1(c2cccc(C(F)(F)F)c2)C2=C(N=NC2)NC2=C1C(=O)NC2(C)C [US20250313563, Compound 913451]", "100 to 1000 nM"]
]}

IC50 of CC[C@@]1(c2cccc(-c3ccnc(C)c3)c2)C2=CN=NC2NC2=C1C(=O)NC(C)(C)C2 (stereo partly drawn) [US20250313563, Compound 927326] , assay on Glycogen synthase kinase-3 beta (Homo sapiens, UniProt P49841), is > 5000 nM

Tested on Glycogen synthase kinase-3 beta (Homo sapiens, UniProt P49841), the item CCC1(c2cccc(-c3cnn4c3CCCC4)c2)C2=CN=NC2NC2=C1C(=O)CC(C)(C)C2 (stereo not drawn) [US20250313563, Compound 926836] showed IC50 equal to 100 to 1000 nM

CCC1(c2cccc(-c3cnn(C4CC4)c3)c2)C2=C(CC(C)(C)CC2=O)NC2N=NC(C)=C21 (stereo not drawn) [US20250313563, Compound 883997] tested on Glycogen synthase kinase-3 beta (Homo sapiens, UniProt P49841) gave IC50: 100 to 1000 nM

---

biological target: Glycogen synthase kinase-3 beta (Homo sapiens, UniProt P49841)
pIC50: −log10 of the molar value.
Recorded measurements of pIC50, one per entry

{"columns": ["compound", "pIC50"],
 "data": [
  ["COc1ccc(S(=O)(=O)N2CCC3(CC2)C2=C(N=NC2)NC2=C3C(=O)CC(C)(C)C2)c(C)c1C [US20250313563, Compound 945662]", "6.00 to 7.00"],
  ["Cc1ncc(S(=O)(=O)N2CCC3(CC2)C2=C(N=NC2)NC2=C3C(=O)CC(C)(C)C2)s1 [US20250313563, Compound 947899]", "> 7.00"]
]}

Consider now this further compound.
Item: CC[C@@]1(c2cccc(-c3ccncc3C(F)(F)F)c2)C2=C(N=NC2)NC2=C1C(=O)C(C)(C)C2 [US20250313563, Compound 952757] | System: Glycogen synthase kinase-3 beta (Homo sapiens, UniProt P49841) | pIC50: < 5.30

---

pIC50: −log10 of the molar value.
Here's what we have: pIC50 numbers for Glycogen synthase kinase-3 alpha (Homo sapiens, UniProt P49840).

Example compounds with recorded pIC50:
{"columns": ["compound", "pIC50"],
 "data": [
  ["CC[C@]1(c2ccccc2)C2=CN=NC2NC2=C1C(=O)C[C@@]1(CCCOC1)C2 (stereo partly drawn) [US20250313563, Compound 816879]", "6.00 to 7.00"],
  ["CC[C@H]1CCN1c1cccc([C@]2(CC)C3=CN=NC3NC3=C2C(=O)CC(C)(C)C3)c1 (stereo partly drawn) [US20250313563, Compound 911972]", "5.30 to 6.00"]
]}

Observed pIC50 on Glycogen synthase kinase-3 alpha (Homo sapiens, UniProt P49840), entry CCc1cc(N(C)c2cccc(C3(CC)C4=CN=NC4NC4=C3C(=O)CC(C)(C)C4)c2)ccn1 (stereo not drawn) [US20250313563, Compound 917147] , equals > 7.00

---

target: Glycogen synthase kinase-3 beta (Homo sapiens, UniProt P49841); assay: TR-FRET Assay
Measured IC50 of individual entries

{"columns": ["compound", "IC50"],
 "data": [
  ["CC[C@@]1(c2cccc(S(C)(=O)=O)c2)C2=CN=NC2NC2=C1C(=O)CC(C)(C)C2 (some centres undefined)", "> 5 µM"],
  ["CC1OCCC12C1=C(N=NC1)NC1=C2C(=O)CC(C)(C)C1 (centres undefined)", "> 5 µM"],
  ["CC[C@]1(c2cccc(N(C)C(=O)c3ccn(C)n3)c2)C2=CN=NC2NC2=C1C(=O)CC(C)(C)C2 (some centres undefined)", "> 5 µM"]
]}

Next compound, IC50 to be filled in.
The compound listed as CCC1(CC)C2=C(CC(C)(C)CC2=O)NC2=C1C(C)N=N2 (centres undefined) shows IC50 equal to > 1.67 µM

---

target: UniProt:P49841
pIC50: −log10 of the molar value.
Each record here notes measured pIC50.

Record excerpt, results attached:
{"columns": ["compound", "endpoint", "obs-value"],
 "data": [
  ["CC1(C)CC(=O)C2=C(C1)NC1N=NC(C3(C(F)(F)F)CC3)=C1[C@@]21CCc2c(F)cccc21 (stereo partly specified)", "pIC50", "5.30 to 6.00"],
  ["CC[C@@]1(c2cccc(-c3cnn(-c4ccccc4)c3F)c2)C2=CN=NC2NC2=C1C(=O)NC(C)(C)C2 (stereo partly specified)", "pIC50", "5.30 to 6.00"],
  ["CCC1(c2cccc(S(=O)(=O)C3COC3)c2)C2=CN=NC2NC2=C1C(=O)CC(C)(C)C2 (stereo unspecified)", "pIC50", "> 7.00"],
  ["CC1(C)CC(=O)C2=C(C1)NC1=C(CN=N1)C21COC2(CN(C(=O)C3(C)CCCC3)C2)C1 (stereo unspecified)", "pIC50", "> 7.00"],
  ["CCN(C(C)=O)c1cccc([C@@]2(CC)C3=CN=NC3NC3=C2C(=O)CC(C)(C)C3)c1 (stereo partly specified)", "pIC50", "> 7.00"]
]}

Then this compound:
The compound identified as CC[C@]1(c2cccc(C(F)(F)F)c2)C2=CN=NC2NC2=C1C(=O)N(c1cc(C)n(C)n1)CC2 (stereo partly specified) registered its pIC50 at 6.00 to 7.00
